pIC50: −log10 of the molar value.
result.type: pIC50

Data request: State, for HIF-2α HIS TAG-PASB Domain (Homo sapiens, UniProt Q99814), measured pIC50 of the compound listed here: CCOc1ccc(S(=O)(=O)C(F)(F)F)c2c1CC(F)(F)C2O (stereo not shown)
Data returned: 6.60 to 7.30

Data request: State, for HIF-2α HIS TAG-PASB Domain (Homo sapiens, UniProt Q99814), measured pIC50 of the compound listed here: OC1c2c(C(F)(F)F)ccc(OCC(F)F)c2CC1F (stereo not shown)
Data returned: 6.60 to 7.30

Data request: State, for HIF-2α HIS TAG-PASB Domain (Homo sapiens, UniProt Q99814), measured pIC50 of the compound listed here: CS(=O)(=O)c1ccc(OCC2CC(F)(F)C2)c2c1[C@H](O)C(F)(F)[C@@H]2F
Data returned: > 7.30

Data request: State, for HIF-2α HIS TAG-PASB Domain (Homo sapiens, UniProt Q99814), measured pIC50 of the compound listed here: N#Cc1cncc(-c2ccc(S(=O)(=O)C(F)(F)F)c3c2CC(F)(F)C3O)c1 (stereo not shown)
Data returned: < 6.00

Where do the numbers come from? From patent US10807948B2.
